System: HOP-92
Assay: NCI tumour cell line growth inhibition, 48 h
Active and inactive are the calls of the source. No stated cut-off is given here; in the data, active = GI50 up to about 1.1 µM and inactive = higher.
Labels: TRUE for active, FALSE for inactive

>  <compound>
CC(C)C.C[N+](C)(C)C.OC(c1ccccc1)(C(F)(F)F)C(F)(F)F.OC(c1ccccc1)(C(F)(F)F)C(F)(F)F.[SiH3-]

>  <classLabel>
TRUE

$$$$
>  <compound>
COc1cccc(N2C(=O)CSC2c2c[nH]c3ccccc23)c1 (configuration not stated)

>  <classLabel>
FALSE

$$$$
>  <compound>
O=c1c2cc(-c3ccccc3)sc2nc2n1N=C(c1ccccc1)CS2

>  <classLabel>
FALSE

$$$$
>  <compound>
C=CCNC(=O)NNC(O)(C(=O)OCC)C(F)(F)F (configuration not stated)

>  <classLabel>
FALSE

$$$$
>  <compound>
CCOC(=O)c1cnc2oc(-c3ccc(OC)cc3)nn2c1=O

>  <classLabel>
FALSE

$$$$
>  <compound>
Cn1c(=O)c2c(ncn2CCSS(=O)(=O)O)n(C)c1=O

>  <classLabel>
FALSE

$$$$
>  <compound>
C[C@]12C[C@@H](OC(=O)[C@]1(C)O)[C@@H]([C@]1(O)CC[C@H]3[C@@H]4C[C@H]5O[C@]56C[C@H]5O[C@H]5C(=O)[C@]6(C)[C@H]4CC[C@@]31C)C2

>  <classLabel>
FALSE

$$$$
>  <compound>
COC(=O)N(C(=O)OC)C(C(=O)O)C(C)C (configuration not stated)

>  <classLabel>
FALSE

$$$$
>  <compound>
O=C1NN=C2C=C(c3ccc(Cl)cc3)CC(c3cccc(Cl)c3)C12 (configuration not stated)

>  <classLabel>
FALSE

$$$$
>  <compound>
CCCCCCCCCCCCCCCC(=O)OCC1OC(OC)C2NP(=O)(N(CCCl)CCCl)OC1C2O (configuration not stated)

>  <classLabel>
TRUE

$$$$
>  <compound>
CCCCNC(=O)Nc1c(C(N)=O)c2n(c1C(=O)OCC)CCCCC2

>  <classLabel>
FALSE

$$$$
>  <compound>
NC(=O)N/N=C(\C(=O)C(=O)Nc1ccc(Cl)c(C(F)(F)F)c1)c1nc2ccc(C(=O)c3ccccc3)cc2nc1O

>  <classLabel>
FALSE

$$$$
>  <compound>
CC(C)=C1C(=O)C[C@]2(C)C[C@H]3/C(=C(/C)CCC12)CC[C@@]3(C)O (some centres not stated)

>  <classLabel>
FALSE

$$$$
>  <compound>
Cc1ccc(-n2cc(-c3ccc(Cl)cc3)c3c(=N)n(N)cnc32)cc1

>  <classLabel>
FALSE

$$$$
>  <compound>
O=C(O)CP(=S)(S)c1ccccc1 (configuration not stated)

>  <classLabel>
FALSE

$$$$
>  <compound>
NC1CNC(=O)c2c(Cl)sc(Cl)c21 (configuration not stated)

>  <classLabel>
FALSE

$$$$
>  <compound>
COc1cc2c(cc1OC)CC1c3cc(OC)c(OC)cc3CCN1CC2 (configuration not stated)

>  <classLabel>
FALSE

$$$$
>  <compound>
O=C(c1ccccc1)c1c(CC(O)c2cccnc2)n(C(=O)c2ccccc2)c2ccccc12 (configuration not stated)

>  <classLabel>
FALSE

$$$$
>  <compound>
CC(C)=CCC[C@@H](C)C1=C(N)C(=O)C(C)=C(O)C1=O

>  <classLabel>
FALSE

$$$$
>  <compound>
CC[S+]1C2=C(CC(C)(C)CC2=O)[N-]c2ccccc21 (configuration not stated)

>  <classLabel>
FALSE

$$$$
>  <compound>
OCC1OC(n2nc(-c3ccccc3)nc2-c2cnccn2)C(O)C(O)C1O (configuration not stated)

>  <classLabel>
FALSE

$$$$
>  <compound>
CC(C)(C)C1CCC2(CC1)c1[nH]c3ccccc3c1C1(CCC(C(C)(C)C)CC1)c1[nH]c3ccccc3c12 (configuration not stated)

>  <classLabel>
FALSE

$$$$
>  <compound>
C=C(C)C(O)C(O)C[C@@H](C)C1CC[C@]23C[C@]12CCC1[C@@]2(C)CCC(OC(C)=O)C(C)(C)C2CC(OC2OC(CO)C(O)C(O)C2O)[C@]13C (some centres not stated)

>  <classLabel>
FALSE

$$$$
>  <compound>
CCCCCCCCCCCCCCCCCCOP(=O)([O-])OC1CC[N+](C)(C)CC1

>  <classLabel>
FALSE

$$$$
>  <compound>
CCOC(=O)N1CCc2cc(OC)c(OC)cc2/C1=C\c1ccc(OC)c(OC)c1

>  <classLabel>
FALSE

$$$$
>  <compound>
O=C1c2cc3c(cc2[C@@H]2C(O)[C@H]4O[C@H]4C4CCN1C42)OCO3 (some centres not stated)

>  <classLabel>
FALSE

$$$$
>  <compound>
Cc1cc2nc3c(N)nn(CCN(C)C)c3nc2cc1C

>  <classLabel>
FALSE

$$$$
>  <compound>
COc1cc(/C=C2\CCC(C)(CN(C)C)C2=O)cc(OC)c1OC (configuration not stated)

>  <classLabel>
FALSE

$$$$
>  <compound>
Brc1cccc(C2(CCCC3(c4cccc(Br)n4)OCCO3)OCCO2)n1

>  <classLabel>
FALSE

$$$$
>  <compound>
CCCn1cc2c(SC)nc(SC)nc2n1

>  <classLabel>
FALSE

$$$$
>  <compound>
Cc1nc(-c2nc([N+](=O)[O-])c([N+](=O)[O-])[nH]2)cs1

>  <classLabel>
FALSE

$$$$
>  <compound>
CSc1nc(-c2ccc(C)cc2)c(C#N)c(=O)[nH]1

>  <classLabel>
FALSE

$$$$
>  <compound>
Cc1ccc(S(=O)(=O)NCCSCCSCCNS(=O)(=O)c2ccc(C)cc2)cc1

>  <classLabel>
FALSE

$$$$
>  <compound>
C=CCCCC1CCCNC1=S (configuration not stated)

>  <classLabel>
FALSE

$$$$
>  <compound>
CCC(C#N)NCc1cccc(CNC(C#N)CC)c1 (configuration not stated)

>  <classLabel>
FALSE

$$$$
>  <compound>
CN(C)Cc1cc(/N=N/c2ccccc2)ccc1O

>  <classLabel>
FALSE

$$$$
>  <compound>
CC(C)C1OCC(CO)CO1 (configuration not stated)

>  <classLabel>
FALSE

$$$$
